tested on: Escherichia coli TOP10; assay: shrunken log2 fold change of peptide-encoding DNA abundance (4.5 h post-induction vs induction); higher = less antimicrobial activity (less host growth inhibition); settings: time post-induction: 4.5 h; library: site-saturation at positions 5, 18, 19, 20
Could you label it true if measured shrunken log2 fold change is -0.01 or higher, and false otherwise?

>>> category_label("RRIRYRPPRLPRPRPRPSLPPRP")
"false"
>>> category_label("RRIRARPPRLPRPRPRPCQFPRP")
"false"
>>> category_label("RRIRLRPPRLPRPRPRPALNPRP")
"false"
>>> category_label("RRIRVRPPRLPRPRPRPNGQPRP")
"true"
>>> category_label("RRIRDRPPRLPRPRPRPDRIPRP")
"false"
>>> category_label("RRIRRRPPRLPRPRPRPCMRPRP")
"true"
>>> category_label("RRIRCRPPRLPRPRPRPKDSPRP")
"false"

* * *

system: Escherichia coli TOP10; test: shrunken log2 fold change of peptide-encoding DNA abundance (4.5 h post-induction vs induction); higher = less antimicrobial activity (less host growth inhibition); conditions: time post-induction: 4.5 h; library: site-saturation at positions 5, 18, 19, 20
Attribute Measured: shrunken log2 fold change

>>> value_observed("RRIRRRPPRLPRPRPRPHHQPRP")
-0.086
>>> value_observed("RRIRIRPPRLPRPRPRPEPNPRP")
-0.0783
>>> value_observed("RRIRCRPPRLPRPRPRPWFSPRP")
-0.208
>>> value_observed("RRIRARPPRLPRPRPRPCQYPRP")
-0.411
>>> value_observed("RRIRLRPPRLPRPRPRPVLRPRP")
-0.113
>>> value_observed("RRIRCRPPRLPRPRPRPIKKPRP")
-0.0497
>>> value_observed("RRIRLRPPRLPRPRPRPCINPRP")
-0.209
>>> value_observed("RRIRTRPPRLPRPRPRPLHSPRP")
0.186
>>> value_observed("RRIRYRPPRLPRPRPRPPWAPRP")
0.449
>>> value_observed("RRIRKRPPRLPRPRPRPEMPPRP")
0.668
>>> value_observed("RRIRIRPPRLPRPRPRPHMRPRP")
0.128
>>> value_observed("RRIRGRPPRLPRPRPRPEGEPRP")
1.97
>>> value_observed("RRIRIRPPRLPRPRPRPHTTPRP")
0.0536
>>> value_observed("RRIRPRPPRLPRPRPRPNPQPRP")
-0.0414
>>> value_observed("RRIRNRPPRLPRPRPRPVYCPRP")
-0.688

* * *

Catalogue of sequences with associated shrunken log2 fold change
tested on: Escherichia coli TOP10; experiment: shrunken log2 fold change of peptide-encoding DNA abundance (4.5 h post-induction vs induction); higher = less antimicrobial activity (less host growth inhibition); settings: time post-induction: 4.5 h; library: site-saturation at positions 5, 18, 19, 20;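 further: peptides expressed intracellularly from a pBAD plasmid library in pooled LB shake-flask culture, induced with 0.3% L-arabinose, DNA abundance read by NGS, three biological replicates, DESeq2 with apeglm shrinkage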
Attribute Measured: shrunken log2 fold change

>>> value_observed("RRIRWRPPRLPRPRPRPMVRPRP")
0.0171
>>> value_observed("RRIRERPPRLPRPRPRPVWRPRP")
0.202
>>> value_observed("RRIRIRPPRLPRPRPRPELSPRP")
-0.476
>>> value_observed("RRIRTRPPRLPRPRPRPNFKPRP")
-0.131
>>> value_observed("RRIRTRPPRLPRPRPRPGVLPRP")
0.08
>>> value_observed("RRIRMRPPRLPRPRPRPFSIPRP")
-0.11
>>> value_observed("RRIRERPPRLPRPRPRPSILPRP")
-0.623
>>> value_observed("RRIRNRPPRLPRPRPRPILNPRP")
-0.353
>>> value_observed("RRIRNRPPRLPRPRPRPHSLPRP")
-0.117
>>> value_observed("RRIRHRPPRLPRPRPRPLMIPRP")
-0.498
>>> value_observed("RRIRLRPPRLPRPRPRPHGVPRP")
-0.0127
>>> value_observed("RRIRKRPPRLPRPRPRPHMVPRP")
-0.33
>>> value_observed("RRIRIRPPRLPRPRPRPPLFPRP")
0.0406
>>> value_observed("RRIRNRPPRLPRPRPRPSTEPRP")
0.118
>>> value_observed("RRIRMRPPRLPRPRPRPIYPPRP")
-0.125
>>> value_observed("RRIRRRPPRLPRPRPRPKEMPRP")
0.0252
>>> value_observed("RRIRKRPPRLPRPRPRPKWNPRP")
0.392
>>> value_observed("RRIRTRPPRLPRPRPRPHHIPRP")
-0.278
>>> value_observed("RRIRIRPPRLPRPRPRPRASPRP")
-0.195
>>> value_observed("RRIRDRPPRLPRPRPRPMVNPRP")
-0.0813
>>> value_observed("RRIRMRPPRLPRPRPRPWIHPRP")
-0.0313
>>> value_observed("RRIRLRPPRLPRPRPRPKEAPRP")
-0.011
>>> value_observed("RRIRIRPPRLPRPRPRPGYGPRP")
-0.309
>>> value_observed("RRIRCRPPRLPRPRPRPVSKPRP")
-0.109
>>> value_observed("RRIRTRPPRLPRPRPRPTYKPRP")
-0.651
>>> value_observed("RRIRFRPPRLPRPRPRPHERPRP")
0.0652
>>> value_observed("RRIRWRPPRLPRPRPRPPPHPRP")
0.721
>>> value_observed("RRIRKRPPRLPRPRPRPFLPPRP")
-0.0487
>>> value_observed("RRIRERPPRLPRPRPRPEKVPRP")
-0.0174
>>> value_observed("RRIRGRPPRLPRPRPRPTLEPRP")
1.22
>>> value_observed("RRIRARPPRLPRPRPRPPYRPRP")
-0.0935
>>> value_observed("RRIRGRPPRLPRPRPRPNWPPRP")
0.306
